Molecular target: F508del in NIH 3T3 cells (Homo sapiens, UniProt P13569, DEL508-508)
Construct: expressed in transfected cells
Sequence (P13569 with tags, fused parts or gaps DEL508-508): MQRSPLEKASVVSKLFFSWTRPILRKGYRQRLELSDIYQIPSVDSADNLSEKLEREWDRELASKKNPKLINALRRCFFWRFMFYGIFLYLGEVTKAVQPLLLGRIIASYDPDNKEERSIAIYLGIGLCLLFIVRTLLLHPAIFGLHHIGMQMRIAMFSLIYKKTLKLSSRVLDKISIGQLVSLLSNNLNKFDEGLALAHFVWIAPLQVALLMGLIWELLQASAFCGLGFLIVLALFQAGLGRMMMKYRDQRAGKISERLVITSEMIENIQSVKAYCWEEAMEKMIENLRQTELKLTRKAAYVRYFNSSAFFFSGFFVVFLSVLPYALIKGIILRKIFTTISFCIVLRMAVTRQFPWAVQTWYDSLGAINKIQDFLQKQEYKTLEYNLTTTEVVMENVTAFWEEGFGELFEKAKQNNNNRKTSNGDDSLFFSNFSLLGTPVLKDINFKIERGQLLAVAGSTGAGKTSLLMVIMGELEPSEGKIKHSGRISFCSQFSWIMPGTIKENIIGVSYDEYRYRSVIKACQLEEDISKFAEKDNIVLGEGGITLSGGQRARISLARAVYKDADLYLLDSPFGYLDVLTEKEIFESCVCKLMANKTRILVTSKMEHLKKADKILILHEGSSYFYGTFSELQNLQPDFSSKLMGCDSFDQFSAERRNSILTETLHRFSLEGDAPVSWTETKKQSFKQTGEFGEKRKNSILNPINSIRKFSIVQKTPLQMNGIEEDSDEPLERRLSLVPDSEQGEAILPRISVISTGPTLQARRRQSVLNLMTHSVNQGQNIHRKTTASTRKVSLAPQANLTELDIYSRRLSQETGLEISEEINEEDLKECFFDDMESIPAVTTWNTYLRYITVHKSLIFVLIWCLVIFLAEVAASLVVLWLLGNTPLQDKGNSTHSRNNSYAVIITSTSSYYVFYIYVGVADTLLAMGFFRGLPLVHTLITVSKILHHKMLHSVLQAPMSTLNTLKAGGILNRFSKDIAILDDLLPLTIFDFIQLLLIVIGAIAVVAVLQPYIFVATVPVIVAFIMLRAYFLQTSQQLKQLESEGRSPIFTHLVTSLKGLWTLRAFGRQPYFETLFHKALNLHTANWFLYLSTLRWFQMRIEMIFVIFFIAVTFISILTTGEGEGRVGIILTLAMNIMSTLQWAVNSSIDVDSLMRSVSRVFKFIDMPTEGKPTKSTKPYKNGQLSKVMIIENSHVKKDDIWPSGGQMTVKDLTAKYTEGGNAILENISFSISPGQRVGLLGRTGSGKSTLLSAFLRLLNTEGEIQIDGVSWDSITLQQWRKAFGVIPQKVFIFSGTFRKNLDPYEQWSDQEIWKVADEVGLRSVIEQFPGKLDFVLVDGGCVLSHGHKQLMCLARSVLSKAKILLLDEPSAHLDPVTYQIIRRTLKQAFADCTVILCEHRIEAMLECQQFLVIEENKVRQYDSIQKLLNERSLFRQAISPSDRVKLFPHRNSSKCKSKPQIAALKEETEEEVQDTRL
Experiment: 3T3 assay: membrane potential optical assay for F508del correction
Format: cell-based, mouse
Conditions: NIH3T3; F508del NIH 3T3 cells; efficacy compared to lumacaftor in combination with acutely added 300 nM Ivacaftor; read-out: 3T3 Max Activity (%)
measured_quantity: Emax

Cc1cc(C)c(-n2nc(NS(=O)(=O)c3ccccc3N)c3ccc(C(C)(C)C)nc32)c(C)c1 ... < 30%

Prompt: In one line, give reported Emax of the entry Cc1ccccc1Oc1nc(NS(=O)(=O)c2cnn(C)c2)nc2c1CC(C)(C)CC2 .
Completion: > 60%

Prompt: Consider the molecule Cc1ccc(-n2nc(NS(=O)(=O)c3ccccc3)c3ccc(C(C)(C)C)nc32)c(C)c1 and give its recorded Emax.
Completion: 30 to 60%

Prompt: Look up and report measured Emax for this entry: Cc1cccc(S(=O)(=O)Nc2nn(-c3c(C)cc(C)cc3C)c3nc(C(C)(C)C)ccc23)c1
Completion: < 30%

Prompt: Write down Emax measured for item Cc1cc(C)c(Oc2cc(C(C)(C)C)cc3nnc(NS(=O)(=O)c4ccccc4)n23)c(C)c1
Completion: < 30%

Prompt: Answer with reported Emax of Cc1cc(C)cc(-c2nc(NS(=O)(=O)c3ccccc3)c3ccc(C(C)(C)C)nc3n2)c1
Completion: < 30%

Prompt: Give a short answer stating reported Emax for O=S(=O)(Nc1nc2ccccc2nc1N1CCCCC1)c1ccccc1 .
Completion: 30 to 60%

Prompt: Answer with the recorded Emax of CC(C)N1CCc2nc(NS(=O)(=O)c3ccccc3)sc2C1 only.
Completion: < 30%

Prompt: State its Emax for this molecule: CC(C)(C)c1ccc2c(NS(=O)(=O)c3ccccc3)cn(-c3cccc(Cl)c3)c2n1
Completion: < 30%

Prompt: Give a short answer stating reported Emax for Cn1c(NS(=O)(=O)c2ccccc2)nc2ccccc21 .
Completion: < 30%

Prompt: Specify Emax for Cc1ccc(-n2nc(NS(=O)(=O)c3ccccc3)c3ccc(C(C)(C)C)nc32)cc1 and stop.
Completion: 30 to 60%

Prompt: Specify measured Emax for CC(C)n1c(NS(=O)(=O)c2ccccc2)nc2ccccc21 .
Completion: < 30%

All values here come from patent US20230373974A1.
